- assayed.system: Nuclear receptor ROR-gamma (Mus musculus) (UniProt P51450)
- Sequence (P51450 whole entry, looked up): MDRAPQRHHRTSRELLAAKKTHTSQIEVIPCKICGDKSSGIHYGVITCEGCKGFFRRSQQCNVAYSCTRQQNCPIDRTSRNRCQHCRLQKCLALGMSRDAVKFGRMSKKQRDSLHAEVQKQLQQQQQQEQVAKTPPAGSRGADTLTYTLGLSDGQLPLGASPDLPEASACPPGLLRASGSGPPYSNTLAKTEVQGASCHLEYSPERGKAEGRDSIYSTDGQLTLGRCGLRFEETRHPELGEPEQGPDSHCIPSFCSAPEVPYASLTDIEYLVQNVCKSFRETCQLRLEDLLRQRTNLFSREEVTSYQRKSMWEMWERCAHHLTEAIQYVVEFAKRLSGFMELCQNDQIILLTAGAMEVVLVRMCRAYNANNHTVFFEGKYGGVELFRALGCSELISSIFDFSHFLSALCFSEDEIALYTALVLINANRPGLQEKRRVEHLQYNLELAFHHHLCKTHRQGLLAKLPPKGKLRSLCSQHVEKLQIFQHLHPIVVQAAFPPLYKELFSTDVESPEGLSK
- assay.method.text: qHTS for inhibitors of ROR gamma transcriptional activity; further: nearly all actives have a fitted effect of over 60% in size; further: potency means the concentration at half of the fitted maximal effect
- particulars: Drosophila S2 Gal4-RORgamma UAS-luciferase reporter, 20 h; series mostly up to 53.6 µM
Hit rate of the full screen: of about 310,000 compounds, about 17,000 (5.5%) were called active. Another 11% or so got no clear call; they are omitted. Many of the other results were omitted from the sample, so actives are more common in it than they were.
property.measured: Potency

{"compound": "CCOc1ccc(S(=O)(=O)Nc2nc3cc(OC)ccc3s2)cc1", "reported.value": "inactive"}
{"compound": "CN(C)c1ccc(/C=C/C(=O)c2ccc(C(C)(C)C)cc2)cc1[N+](=O)[O-]", "reported.value": "inactive"}
{"compound": "COc1ccc(C(=O)NC2CC(C)(C)Cc3c2cnn3-c2ccccc2C)o1 (stereo unspecified)", "reported.value": "inactive"}
{"compound": "CC(=O)c1ccc2c(c1)OCCOCCOc1ccc(C(C)=O)cc1OCCOCCO2", "reported.value": "inactive"}
{"compound": "C=CCNC(=O)CSc1nc2scc(-c3ccco3)c2c(=O)n1CC=C", "reported.value": "inactive"}
{"compound": "CCC1CCCCN1C(=S)Nc1ccc(S(=O)(=O)Nc2ncccn2)cc1 (stereo unspecified)", "reported.value": "inactive"}
{"compound": "Cc1ccc(NC2=C(Cl)C(=O)OC2OC(=O)c2ccccc2C)cc1 (stereo unspecified)", "reported.value": "inactive"}
{"compound": "Cc1[nH]nc(-c2ccc(OCc3cnn(-c4ccccc4)c3)cc2O)c1Oc1ccc(Cl)cc1", "reported.value": "2.24 µM (active)"}
{"compound": "COc1ccc2nc(NC(=O)[C@@H]3CCCN3C(=O)c3cccs3)sc2c1", "reported.value": "inactive"}
{"compound": "Cc1cccc(NC(=O)NC2(C)CCS(=O)(=O)C2)c1 (stereo unspecified)", "reported.value": "inactive"}
{"compound": "O=C(O)/C=C/c1ccc2c(c1)OCCO2", "reported.value": "inactive"}
{"compound": "CCc1ccc(NC(=O)CN2C(=O)COc3ccc(S(=O)(=O)N4CCCC4)cc32)cc1", "reported.value": "inactive"}
{"compound": "Cn1c(=O)c2c(SCC(=O)NCC3CCCO3)nc(CC(C)(C)C)nc2n(C)c1=O (stereo unspecified)", "reported.value": "inactive"}
{"compound": "Cc1ccsc1/C=N/Nc1ccc(Cl)nn1", "reported.value": "inactive"}
{"compound": "Clc1ccc(-c2cc(-c3ccccn3)on2)c(Cl)c1", "reported.value": "3.98 µM (active)"}
{"compound": "COc1cccc(NC(=O)c2ccccc2N(Cc2ccccc2)S(C)(=O)=O)c1", "reported.value": "inactive"}
{"compound": "Cc1ccccc1C(=O)OC1OC(=O)C(Cl)=C1Nc1ccccc1 (stereo unspecified)", "reported.value": "11.2 µM (active)"}
{"compound": "COc1ccc(NS(=O)(=O)c2ccc(F)cc2F)cn1", "reported.value": "inactive"}
{"compound": "CN(C)c1ccc(S(=O)(=O)NCC(=O)NCC2CCCCC2)cc1[N+](=O)[O-]", "reported.value": "inactive"}
{"compound": "CS(=O)(=O)c1ccc2nc(NC(=O)c3ccc(Cl)nc3)sc2c1", "reported.value": "inactive"}
{"compound": "CN(C)C(=O)c1ccc(NC(=O)c2ccccc2-c2ccccc2)cc1", "reported.value": "inactive"}
{"compound": "O=C1CSC(c2ccccc2)N1c1nc(-c2ccc(Cl)cc2Cl)cs1 (stereo unspecified)", "reported.value": "inactive"}
{"compound": "COc1ccc(C(=O)NCC(=O)N/N=C/c2cccnc2)cc1", "reported.value": "inactive"}
{"compound": "CCC(=O)c1ccc(OCC(=O)Nc2ccc3nc(C)sc3c2)cc1", "reported.value": "inactive"}
{"compound": "Cc1cc(C)c(C#N)c(SCC(=O)Nc2ccccc2)n1", "reported.value": "inactive"}
{"compound": "Cc1ccc(NS(=O)(=O)c2ccc3c(c2)NC(=O)CO3)cc1", "reported.value": "inactive"}
{"compound": "Cn1c(COc2ccc(Cl)cc2)nc2ccccc2c1=O", "reported.value": "inactive"}
{"compound": "CCOC(=O)CNc1nc(Cl)nc(Nc2ccccc2)n1", "reported.value": "inactive"}
{"compound": "COCCCC1CCN(C(=O)C2CCC(=O)N(C3CCCCCC3)C2)CC1 (stereo unspecified)", "reported.value": "inactive"}
{"compound": "COC(=O)C1=C(C)N(C)C(=S)NC1c1ccccc1 (stereo unspecified)", "reported.value": "inactive"}
{"compound": "CCOC(=O)C1CCN(C(=O)COc2cccc3ccccc23)CC1", "reported.value": "inactive"}
{"compound": "O=C(/C=C/c1ccc2c(c1)OCCO2)c1ccc(O)cc1", "reported.value": "1.26 µM (active)"}
{"compound": "C/C(=N\\Nc1nncc2ccccc12)c1ccc(Cl)c([N+](=O)[O-])c1", "reported.value": "inactive"}
{"compound": "COc1ccc(S(=O)(=O)NCCOc2ccccc2)cc1F", "reported.value": "inactive"}
{"compound": "Cc1snc(SCc2c(F)cccc2Cl)c1C#N", "reported.value": "inactive"}
{"compound": "COc1ccc2nc(Nc3nc4cc5c(cc4s3)OCCO5)sc2c1", "reported.value": "12.6 µM (active)"}
{"compound": "CCC(C(=O)NCc1cccnc1)n1nc(C)c2sc3ccccc3c2c1=O (stereo unspecified)", "reported.value": "inactive"}
{"compound": "COc1ccc(-c2nc(N)ncc2-c2ccc(Cl)cc2)c(O)c1", "reported.value": "inactive"}
{"compound": "O=c1ccc2cc(S(=O)(=O)NCCCc3ccccc3)ccc2[nH]1", "reported.value": "inactive"}
{"compound": "COC(=O)C1=C(C)N(C)C(=S)NC1c1cc(OC)ccc1OC (stereo unspecified)", "reported.value": "15.8 µM (active)"}
{"compound": "CN1/C(=C\\C(=O)c2cccnc2Cl)C(C)(C)c2ccccc21", "reported.value": "inactive"}
{"compound": "Oc1cccc(/C=N/Nc2ccc(Cl)nn2)c1O", "reported.value": "1.41 µM (active)"}
{"compound": "Cc1ccc(-c2cnc(NC(=O)CCC(=O)N(C)Cc3ccccc3)n2C)cc1", "reported.value": "2.24 µM (active)"}
{"compound": "Oc1ccc(-n2nnnc2SCc2c(F)cccc2Cl)cc1", "reported.value": "inactive"}
{"compound": "CCC(Cc1ccccc1)NS(=O)(=O)c1ccc2c(c1)NC(=O)CS2 (stereo unspecified)", "reported.value": "inactive"}
{"compound": "CC(C)[C@H](NC(=O)N1CCn2c1nc1ccccc12)C(=O)NCCc1ccccc1", "reported.value": "inactive"}
